System: MGC-803
Assay: Antiproliferative activity against human MGC-803 cells assessed as inhibition of cell proliferation by CCK-8 assay
Format: functional, cell-based
measured quantity: IC50 (nM)
One number for each entry, in nM.

For this molecule ( C[C@H]1COc2c(N3CCN(C)CC3)c(F)cc3c(=O)c(-c4nnc(NC(=O)CCCCCCC(=O)NO)s4)cn1c23 ), measured IC50 is 600

* * *

Tested on: EJ
Assay: Anticancer activity against human EJ cells assessed as reduction in cell viability incubated for 72 hrs by MTT assay
Type: functional, cell-based
measured quantity: IC50

compound	measured quantity	result
CCn1cc(C(=O)O)c(=O)c2cc(F)c(N3CCN(C/C(=N/O)c4ccc(Cl)s4)CC3)cc21	IC50	< 10 µM
O=C(O)c1cn(C2CC2)c2cc(N3CCNCC3)c(F)cc2c1=O [CIPROFLOXACIN]	IC50	> 128 µM
CCn1cc(C(=O)O)c(=O)c2cc(F)c(N3CCN(C/C(=N/OCc4ccccc4)c4ccc(Cl)s4)CC3)cc21	IC50	< 10 µM

// for each compound in input: emit IC50
1. CCn1cc(C(=O)O)c(=O)c2cc(F)c(N3CCNCC3)nc21 [ENOXACIN]
2. O=C(O)c1cn(C2CC2)c2cc(N3CCN(C/C(=N/OCc4ccccc4)c4ccc(Cl)s4)CC3)c(F)cc2c1=O
3. O=C(CN1CCN(c2cc3c(cc2F)c(=O)c(C(=O)O)cn3C2CC2)CC1)c1ccc(Cl)s1
4. CCn1cc(C(=O)O)c(=O)c2cc(F)c(N3CCNCC3)cc21 [NORFLOXACIN]
5. CO/N=C(/CN1CCN(c2cc3c(cc2F)c(=O)c(C(=O)O)cn3C2CC2)CC1)c1ccc(Cl)s1
6. CCn1cc(C(=O)O)c(=O)c2cc(F)c(N3CCN(CC(=O)c4ccc(Cl)s4)CC3)cc21
7. O=C(O)c1cn(C2CC2)c2cc(N3CCN(C/C(=N/O)c4ccc(Cl)s4)CC3)c(F)cc2c1=O
8. CCn1cc(C(=O)O)c(=O)c2cc(F)c(N3CCN(CC(=O)c4ccc(Cl)s4)CC3)nc21

Response:
> 128 µM
< 10 µM
< 10 µM
> 128 µM
< 10 µM
< 10 µM
< 10 µM
< 10 µM

// for each compound in input: emit IC50
1. CCn1cc(C(=O)O)c(=O)c2cc(F)c(N3CCN(C/C(=N/OC)c4ccc(Cl)s4)CC3)cc21
2. CCn1cc(C(=O)O)c(=O)c2cc(F)c(N3CCN(C/C(=N/OC)c4ccc(Cl)s4)CC3)nc21

Response:
1. < 10 µM
2. < 10 µM

For this compound ( CCn1cc(C(=O)O)c(=O)c2cc(F)c(N3CCN(C/C(=N/O)c4ccc(Cl)s4)CC3)nc21 ), measured IC50 is < 10 µM

* * *

Tested on: NCI-H460
Test: Antiproliferative activity against human NCI-H460 cells assessed as inhibition of cell proliferation by CCK-8 assay
Type: functional, cell-based
measured quantity: pIC50
Answers are plain numbers, as −log10 of the molar value.

For this compound ( C[C@H]1COc2c(N3CCN(C)CC3)c(F)cc3c(=O)c(-c4nnc(NC(=O)CCCCCCC(=O)NO)s4)cn1c23 ), measured pIC50 is 6.22
